tgt: CH505w136.B18D8gp120
measurementNotes: ELISA
Hi, to clarify the labels: YES covers LogAUC from 4 upward, NO covers anything below 4.

Check out these entries, answers already filled in.
binder="CH493 (antibody, V domains shown, also called CH235.9; DH493) VH: QVRLLQYGGGVKRPGASMTISCVASGYNFNDYYIHWVRQAPGQGLELMGWIDPSGGRTDYAGAFGDRVSMYRDKSMNTLYMDLRSLRSGDTAMYYCVRNVGTAGSLLHYDHWGLGVMVTVSS VL: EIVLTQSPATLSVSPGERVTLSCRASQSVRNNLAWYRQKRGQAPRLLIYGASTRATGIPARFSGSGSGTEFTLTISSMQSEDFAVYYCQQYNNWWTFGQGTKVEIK" labelvalue=YES
binder="CH235 (antibody, V domains shown, also called CH235_4A) VH: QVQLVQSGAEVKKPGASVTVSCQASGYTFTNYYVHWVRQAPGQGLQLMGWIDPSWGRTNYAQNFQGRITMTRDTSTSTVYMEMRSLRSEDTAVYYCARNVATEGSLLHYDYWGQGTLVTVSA VL: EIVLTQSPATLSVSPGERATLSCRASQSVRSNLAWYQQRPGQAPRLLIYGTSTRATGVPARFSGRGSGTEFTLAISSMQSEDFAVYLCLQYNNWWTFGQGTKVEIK" labelvalue=YES
binder="CH235.13 (antibody, V domains shown) VH: QVQLVQSGGGVKRPGSTTTISCVASGYSFNDYYIHWVRQAPGQGLEVLGFIDPSNGRTNYAGAFGDRFSMYRDKSMETLYMDLRNLRSDDTAMYYCVRNVGTAGSLLHYDHWGTGSKIIVSS VL: EIVLTQSPATLSASPGERVTLTCRASRGVRNNVAWYQHNVGQSPRLLIYDASTRAPGIPARFSGSASGTEFTLAISSIQSEDFTLYYCHQYNNWWTFGQGTRVDIN" labelvalue=NO
binder="CH557 (antibody, V domains shown, also called CH235.12; CH557_4A/293i) VH: QVRLAQYGGGVKRLGATMTLSCVASGYTFNDYYIHWVRQAPGQGFELLGYIDPANGRPDYAGALRERLSFYRDKSMETLYMDLRSLRYDDTAMYYCVRNVGTAGSLLHYDHWGSGSPVIVSS VL: EIVLTQSPATLSASPGERVTLTCRASRSVRNNVAWYQHKGGQSPRLLIYDASTRAAGVPARFSGSASGTEFTLAISNLESEDFTVYFCLQYNNWWTFGQGTRVDIK" labelvalue=YES
binder="CH556 (antibody, V domains shown, also called CH235.11) VH: QVQLVQSGGTVKSPGTSVTLSCKTSGYNFIDYYIHWVRRAPGQRPELMGYIDPSHGRPDYEGKFRDRISLYRDTSTSVVYMDVRGLRLDDTALYYCVRGGGVEVSSNHYDHWGPGTMVFVSP VL: ETTLTQSPDTLSASPGERVTLSCRAAQSVGSQVAWFRHIRGQPPRLLISGASTRAAGVPARFSGSGSGTDFTLTISGMQSEDFAEYFCQQYHMWWTFGQGTRVDKN" labelvalue=NO
binder="CH241 (antibody, V domains shown) VH: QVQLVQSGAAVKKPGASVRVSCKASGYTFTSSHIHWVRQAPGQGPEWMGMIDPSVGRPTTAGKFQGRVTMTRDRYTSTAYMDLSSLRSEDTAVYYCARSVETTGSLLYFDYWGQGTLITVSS VL: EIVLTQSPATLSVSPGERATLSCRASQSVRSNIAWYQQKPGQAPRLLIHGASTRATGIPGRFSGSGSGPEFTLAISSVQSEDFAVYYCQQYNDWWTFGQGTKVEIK" labelvalue=NO
binder="CH555 (antibody, V domains shown, also called CH235.10) VH: QVQLVQSGATVKKPRASVTLSCRTSGYNFIDYFIHWVRRAPGQRLEVMGYIDPSRGRPDYAPNFRDRVSLYRDTSMSIVYLDLRDLTPDDTAIYYCVRSEGTEGTVLHYDHWGPGTRVTVSP VL: EIVLTQSPDTLSASPGERVTLSCRASQSVGTKVAWYRHVRGQPPRLLIYGASTRAAGIPARFSGGGSGTNFTLIINNFQSEDFAEYLCQQYKSWWTFGQGTKVDNK" labelvalue=YES
binder="CH491 (antibody, V domains shown, also called CH235.7; DH491) VH: QVQLVQSGAAVKRPGASVTISCRASGYTFTTYYIHWVRQAPGQGLELMGWINPRGGRTDYSYRFEDRVSMYRDTSMSIVYMDLRNLKSADTAVYYCVRNVGTSGSLLHYDFWGQGSLVTVSS VL: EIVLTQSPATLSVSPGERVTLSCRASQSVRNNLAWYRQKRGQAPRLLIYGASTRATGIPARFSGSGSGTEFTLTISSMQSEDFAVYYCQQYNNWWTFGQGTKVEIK" labelvalue=NO

Read the next record carefully.
Ask | Could you tell me if the measured LogAUC of CH236 (antibody, V domains shown, also called CH236_4A/293i) VH: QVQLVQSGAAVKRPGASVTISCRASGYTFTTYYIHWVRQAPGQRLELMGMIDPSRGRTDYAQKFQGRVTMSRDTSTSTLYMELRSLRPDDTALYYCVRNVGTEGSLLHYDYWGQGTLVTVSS VL: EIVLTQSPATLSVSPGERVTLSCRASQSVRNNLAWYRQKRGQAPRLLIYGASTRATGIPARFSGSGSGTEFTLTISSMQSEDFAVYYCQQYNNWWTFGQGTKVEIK reaches 4 or more?
Reply | NO
